Quick record: log10(IC50), Prostaglandin G/H synthase 1 (Ovis aries, UniProt P05979).
recorded metric: log10(IC50) (log10 of the value in µM)

- CS(=O)(=O)c1ccc(-c2c(-c3ccc(F)cc3)cc(OCc3ccc(Cl)cc3)oc2=O)cc1: 2.48
- CC(C)Oc1cc(-c2ccc(F)cc2)c(-c2ccc(S(C)(=O)=O)cc2)c(=O)o1: 2.75
- CC(C)COc1cc(-c2ccccc2)c(-c2ccc(S(C)(=O)=O)cc2)c(=O)o1: 0.49
- CS(=O)(=O)c1ccc(-c2c(-c3ccccc3)cc(OCc3ccc(Cl)cc3)oc2=O)cc1: 1.71
- CC(C)(C)Oc1cc(-c2ccc(F)cc2)c(-c2ccc(S(C)(=O)=O)cc2)c(=O)o1: 1.84
- Cc1cc(-c2ccc(F)cc2)c(-c2ccc(S(C)(=O)=O)cc2)c(=O)o1: 2.30
- CCOc1cc(-c2ccc(F)cc2)c(-c2ccc(S(C)(=O)=O)cc2)c(=O)o1: 2.46
